Recorded measurements of pIC50, one per entry
Molecular target: T1, human c-Met/Fc fusion protein (R&D Systems) (human, UniProt P08581 25-932)
T1 construct: Bought reagent; also called c-Met/Fc chimera (R&D Systems Cat. No. 358-MT/CF); not shown: Fc part of the bought fusion
T1 sequence (P08581 25-932 limits assumed): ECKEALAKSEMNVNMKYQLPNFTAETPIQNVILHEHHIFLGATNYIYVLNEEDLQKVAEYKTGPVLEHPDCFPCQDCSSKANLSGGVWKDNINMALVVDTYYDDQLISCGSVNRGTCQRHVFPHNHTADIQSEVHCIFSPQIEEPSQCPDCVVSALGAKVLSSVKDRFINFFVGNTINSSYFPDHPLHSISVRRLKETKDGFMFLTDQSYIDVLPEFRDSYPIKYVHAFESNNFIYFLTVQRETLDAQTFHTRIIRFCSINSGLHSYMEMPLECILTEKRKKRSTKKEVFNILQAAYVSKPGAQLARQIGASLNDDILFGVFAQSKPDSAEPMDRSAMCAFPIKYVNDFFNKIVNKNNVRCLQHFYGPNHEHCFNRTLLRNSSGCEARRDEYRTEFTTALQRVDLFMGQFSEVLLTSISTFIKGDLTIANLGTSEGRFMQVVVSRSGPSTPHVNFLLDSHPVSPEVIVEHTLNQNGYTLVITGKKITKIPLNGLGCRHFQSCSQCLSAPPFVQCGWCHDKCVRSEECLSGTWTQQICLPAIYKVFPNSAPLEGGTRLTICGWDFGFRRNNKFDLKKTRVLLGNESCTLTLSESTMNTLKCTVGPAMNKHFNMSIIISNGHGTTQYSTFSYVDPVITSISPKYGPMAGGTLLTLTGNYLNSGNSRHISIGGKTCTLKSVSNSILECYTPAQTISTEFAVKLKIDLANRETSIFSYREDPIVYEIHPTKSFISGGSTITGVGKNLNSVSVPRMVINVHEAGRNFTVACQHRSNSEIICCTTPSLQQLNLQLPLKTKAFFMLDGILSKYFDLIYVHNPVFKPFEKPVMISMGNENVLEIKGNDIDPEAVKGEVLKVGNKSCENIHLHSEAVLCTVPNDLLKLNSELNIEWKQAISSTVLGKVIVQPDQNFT
Test: competition ELISA on coated c-Met/Fc; competitor biotinylated chAbF46 (0.1 ug/ml)
Description: The antigens were coated by overnight incubation at a temperature of 4° C. using Nunc Immuno MaxiSort 96 well flat bottom microtiter plate (Fisher Cat. No. DIS-971-030J) and 1.0 μg/ml and 100 μl/well of c-Met/Fc chimera (R&D Systems Cat. No. 358-MT/CF). chAbF46 and 20 humanized antibodies were diluted and at a concentration of 10 μg/ml to 0.078 μg/ml, they were mixed with biotinylated chAbF46 (0.1 μg/ml, final conc.), followed by incubation at a temperature of 37° C. for 2 hours. […]
pIC50 (log units): -log10 of the concentration in mol/L.

Illustrative cases are given below, each with its answer.
[
  {
    "binder": "deimmunized humanized antibody huAbF46 including a combination of AT-VH3 and AT-Vk4 (antibody, IgG1, V domains shown, expressed from pANTVhG1 and pANTVk vectors (IgG1, kappa) in HEK293 cells; also called AT-VH3/AT-Vk4) VH: EVQLVESGGGLVQPGGSLRLSCATSGFTFTDYYMSWVRQPPGKGLEWLGFIRNKANGYTTEYSASVKGRFTISRDNSKSTLYLQMNSLRAEDTATYYCARDNWFAYWGQGTLVTVSS VL: DIQMTQSPSSLSASVGDRVTITCKSSQSLLASGNQNNYLAWHQQKPGKAPKMLIIWASTRVSGVPDRFSGSGSGTDFTLTISSLQAEDVAVYYCQQSYSAPLTFGQGTKLEIK",
    "pIC50": 8.74
  },
  {
    "binder": "deimmunized humanized antibody huAbF46 including a combination of AT-VH4 and AT-Vk4 (antibody, IgG1, V domains shown, expressed from pANTVhG1 and pANTVk vectors (IgG1, kappa) in HEK293 cells; also called AT-VH4/AT-Vk4) VH: EVQLVESGGGLVQPGGSLRLSCATSGFTFTDYYMSWVRQPPGKGLEWLGFIRNKANGYTTEYSASVKGRFTISRDNSKNTLYLQMNSLRAEDTATYYCARDNWFAYWGQGTLVTVSS VL: DIQMTQSPSSLSASVGDRVTITCKSSQSLLASGNQNNYLAWHQQKPGKAPKMLIIWASTRVSGVPDRFSGSGSGTDFTLTISSLQAEDVAVYYCQQSYSAPLTFGQGTKLEIK",
    "pIC50": 8.85
  },
  {
    "binder": "deimmunized humanized antibody huAbF46 including a combination of AT-VH2 and AT-Vk2 (antibody, IgG1, V domains shown, expressed from pANTVhG1 and pANTVk vectors (IgG1, kappa) in HEK293 cells; also called AT-VH2/AT-Vk2) VH: EVKLVESGGGLVQPGGSLRLSCATSGFTFTDYYMSWVRQPPGKGLEWLGFIRNKANGYTTEYSASVKGRFTISRDNSKSTLYLQMNSLRAEDTATYYCARDNWFAYWGQGTLVTVSS VL: DILMTQSPSSLSASVGDRVTITCKSSQSLLASGNQNNYLAWHQQKPGKAPKMLIIWASTRVSGVPDRFIGSGSGTDFTLTISSLQAEDVAVYYCQQSYSAPLTFGQGTKLEIK",
    "pIC50": 8.89
  },
  {
    "binder": "deimmunized humanized antibody huAbF46 including a combination of AT-VH3 and AT-Vk3 (antibody, IgG1, V domains shown, expressed from pANTVhG1 and pANTVk vectors (IgG1, kappa) in HEK293 cells; also called AT-VH3/AT-Vk3) VH: EVQLVESGGGLVQPGGSLRLSCATSGFTFTDYYMSWVRQPPGKGLEWLGFIRNKANGYTTEYSASVKGRFTISRDNSKSTLYLQMNSLRAEDTATYYCARDNWFAYWGQGTLVTVSS VL: DIQMTQSPSSLSASVGDRVTITCKSSQSLLASGNQNNYLAWHQQKPGKAPKMLIIWASTRVSGVPDRFIGSGSGTDFTLTISSLQAEDVAVYYCQQSYSAPLTFGQGTKLEIK",
    "pIC50": 8.26
  },
  {
    "binder": "deimmunized humanized antibody huAbF46 including a combination of AT-VH4 and AT-Vk3 (antibody, IgG1, V domains shown, expressed from pANTVhG1 and pANTVk vectors (IgG1, kappa) in HEK293 cells; also called AT-VH4/AT-Vk3) VH: EVQLVESGGGLVQPGGSLRLSCATSGFTFTDYYMSWVRQPPGKGLEWLGFIRNKANGYTTEYSASVKGRFTISRDNSKNTLYLQMNSLRAEDTATYYCARDNWFAYWGQGTLVTVSS VL: DIQMTQSPSSLSASVGDRVTITCKSSQSLLASGNQNNYLAWHQQKPGKAPKMLIIWASTRVSGVPDRFIGSGSGTDFTLTISSLQAEDVAVYYCQQSYSAPLTFGQGTKLEIK",
    "pIC50": 8.70
  }
]

Proceeding to the next binder to report its pIC50.
Problem: Please look up its pIC50: deimmunized humanized antibody huAbF46 including a combination of AT-VH2 and AT-Vk1 (antibody, IgG1, V domains shown, expressed from pANTVhG1 and pANTVk vectors (IgG1, kappa) in HEK293 cells; also called AT-VH2/AT-Vk1) VH: EVKLVESGGGLVQPGGSLRLSCATSGFTFTDYYMSWVRQPPGKGLEWLGFIRNKANGYTTEYSASVKGRFTISRDNSKSTLYLQMNSLRAEDTATYYCARDNWFAYWGQGTLVTVSS VL: DILMTQSPSSLTASVGDRVTMTCKSSQSLLASGNQNNYLAWHQQKPGKAPKMLIIWASTRVSGVPDRFIGSGSGTDFTLTISSLQAEDVAVYYCQQSYSAPLTFGQGTKLEIK
Solution: 8.64
